All figures here come from ChEMBL document CHEMBL1201862.

# System: SK-MEL-5
# PROTOCOL DESCRIPTION: NCI tumour cell line growth inhibition, 48 h
The source made the active and inactive calls. No stated cut-off is given here; in the data, active = GI50 up to about 1.1 µM and inactive = higher.
Record form. Attribute: GI50. Fill in for each entry.

List reported GI50 for each of these molecules:
1. O=C(O)/C=C/C=C/c1ccc2c(c1)OCO2
2. COC(=O)c1cc2ccccc2c2nc3ccccc3c(Cl)c12
3. CC(C)OP(=O)(OC(C)C)/C(=N/Nc1ccc([N+](=O)[O-])cc1)Nc1ccc(N/C(=N\Nc2ccc([N+](=O)[O-])cc2)P(=O)(OC(C)C)OC(C)C)cc1
4. Cn1c(=O)c2c(nc(NCCCCl)n2CC(=O)O)n(C)c1=O
5. Cc1cn([C@H]2C[C@H](O)[C@@H](CO)O2)c(=O)nc1N
6. CCOC(=O)C(OCC1CC=CCC1)Sc1ccccc1 (stereo not given)

1: 94.4 µM (inactive); 2: > 100 µM (inactive); 3: 6.98 µM (inactive); 4: > 100 µM (inactive); 5: > 100 µM (inactive); 6: > 100 µM (inactive)

Give me GI50 for each of these molecules, listed below.
1. c1cc(-c2ccc(Oc3ccc(-c4ccncc4)cc3)cc2)ccn1
2. O=C(O)[C@H]1[C@@H](C2CCCCC2)O[C@@H](C2CCCCC2)O[C@H]1C(F)(F)F
3. CCSC1=N/C(=C\c2ccc(N(C)C)cc2)C(Cl)=N1

2.2 µM (inactive)
20.7 µM (inactive)
> 100 µM (inactive)

Param readout= GI50; system= SK-MEL-5; entry= CC1(F)C=CC(=O)C=C1 ; returns value.
> 100 µM (inactive)

* * *

# System: OVCAR-4
# PROTOCOL DESCRIPTION: NCI tumour cell line growth inhibition, 48 h
Calls of active or inactive are those of the source. Rule as the data show it: active = GI50 up to about 1.1 µM and inactive = higher.
Use one of these outcomes when replying: yes = active, no = inactive

COMPOUND	CLASS NAME
O=C(/C=C1/Nc2ccc([N+](=O)[O-])cc2N/C1=C/C(=O)c1ccccc1)c1ccccc1	no
N#C/C(=C/NC(N)=S)C(N)=O	no
N#Cc1c(Cl)c2ccccc2n2c1nc1ccccc12	no

Recorded test outcome, item c1csc(-c2csc(-c3cccs3)c2)c1
no

* * *

# Tested on: KM12
# PROTOCOL DESCRIPTION: NCI tumour cell line growth inhibition, 48 h
Active and inactive are the calls of the source. Cut-off read from the data, not from the text of the source: active = GI50 up to about 1.1 µM and inactive = higher.
Write down the outcome that applies. Available outcomes: active, inactive

COMPOUND	CLASS NAME
c1ccc([P+](Cc2ccccc2C[P+](c2ccccc2)(c2ccccc2)c2ccccc2)(c2ccccc2)c2ccccc2)cc1	inactive

Fill in: this test's call for Cc1cc(OC(=O)Nc2cccc3ccccc23)c(C(C)C)cc1C(=S)Nc1ccccc1 is ___
inactive

What is the recorded call for this compound in the test? CC1CC(C)C(C#N)N(C)c2ccccc21 (stereo not given)
inactive

Fill in: this test's call for O=C(O)C1(Cc2ccccc2)Cc2cc3c(cc2C1)CCC3 is ___
inactive

Lab log entry: CCCC(=O)C(CC)/C(CCC(=O)N(Cc1ccccc1)Cc1ccccc1)=N/NC(=O)C[N+](C)(C)C (stereo not given) — outcome as called in the assay?
inactive

Recorded test call requested for COC(=O)C(Cc1ccccc1)NC(=O)CSc1nnc(COc2ccc(Cl)cc2)n1-c1ccccc1 (stereo not given)
inactive

So what was the verdict on O=C(/C=C1/Nc2ccc([N+](=O)[O-])cc2N/C1=C/C(=O)c1ccccc1)c1ccccc1 in this test?
inactive
